Cited source for all entries: patent US12473263B2

biological target: (Homo sapiens); experiment: Fluorescence anisotropy (FP) competition binding assay; settings: 10 nM FAM-ANRIL as probe
Sequence (O95931 whole entry, looked up): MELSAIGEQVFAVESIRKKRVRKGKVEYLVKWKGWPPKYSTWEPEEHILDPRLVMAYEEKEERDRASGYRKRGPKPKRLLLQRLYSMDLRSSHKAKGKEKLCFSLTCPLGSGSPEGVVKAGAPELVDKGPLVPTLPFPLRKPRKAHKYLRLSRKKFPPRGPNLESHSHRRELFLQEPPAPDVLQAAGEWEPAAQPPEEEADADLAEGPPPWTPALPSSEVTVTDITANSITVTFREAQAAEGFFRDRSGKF
measured attribute: Kd (µM)
Number in µM, nothing else.

// returns reported Kd for input C#CCn1c(=N)n(CC(O)c2ccc(Cl)c(Cl)c2)c2ccccc21 (centres unmarked)
1.53

And for Cc1ccc(Cn2cc(Cn3c(=N)n(CC(O)c4ccc(Cl)c(Cl)c4)c4ccccc43)nn2)cc1 (centres unmarked) ?
0.108
